Test system: OVCAR-5 ovarian
Assay: NCI-60 one-dose screen, 48 h (100 = growth as untreated, 0 = no growth, -100 = all killed)
Settings: 10 µM unless noted
About 83,000 compounds went through this panel and 20% of them were active in at least one assay; those are over-represented in the sample as a whole.
Please respond with reported growth for every item in the list.
The reply should be a number in %, with the unit left off.

Asked: Consider the compound CCN1C(=S)N(CC)C2C1N=C(SC)N2/N=C/C=C/c1ccccc1[N+](=O)[O-] (stereo not given) . State its measured growth.
Given back: 98.2

Asked: Consider the compound COc1cc(/C=C/C(=O)c2ccc(C(F)(F)F)cc2)ccc1Oc1nc(NCCO)nc(N2CCOCC2)n1 . State its measured growth.
Given back: 101

Asked: Consider the compound COc1ccc(C(=O)/C=C/c2ccc(OCc3ccc(Cl)cc3)c(OC)c2)cc1OC . State its measured growth.
Given back: 100

Asked: Consider the compound COc1cc(/C=C/C(=O)c2ccc(Cl)cc2)ccc1Oc1nc(NCCO)nc(N2CCOCC2)n1 . State its measured growth.
Given back: 102

Asked: Consider the compound CN(C)c1ccc(-c2c(NC(C)(C)C)nc3c(OCCc4ccccc4)cccn23)cc1 . State its measured growth.
Given back: 21.5
